Data credit: patent US12503454B2

Molecular target: human LPAR1 (Homo sapiens, UniProt Q92633)
Sequence (Q92633 whole entry): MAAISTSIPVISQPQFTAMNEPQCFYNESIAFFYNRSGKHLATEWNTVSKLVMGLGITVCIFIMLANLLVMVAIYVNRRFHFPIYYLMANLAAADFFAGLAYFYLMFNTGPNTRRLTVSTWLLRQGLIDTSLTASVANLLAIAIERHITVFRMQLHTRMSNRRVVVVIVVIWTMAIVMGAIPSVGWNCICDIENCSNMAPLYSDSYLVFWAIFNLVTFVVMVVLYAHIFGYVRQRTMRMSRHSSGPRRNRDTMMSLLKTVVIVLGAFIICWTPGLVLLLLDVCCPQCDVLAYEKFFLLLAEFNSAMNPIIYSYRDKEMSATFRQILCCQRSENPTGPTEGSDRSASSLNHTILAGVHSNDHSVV
Experiment: LPAR1 intracellular calcium mobilization assay (antagonist mode, FLIPR)
Format: cell-based
Details: CHO-K1 EDG2 cells expressing human LPAR1; test compound 0.5 nM to 10 μM pre-incubated 60 minutes at 37° C., then LPA 18:2 at EC80 concentration (100 nM)
EC50 overview
Provide the reading as a plain figure in nM.

Example cases with answers are listed next.
- C[C@@H](OC(=O)Nc1c(-c2ccc(C(=O)NC34CC(C(F)F)(C3)C4)cn2)nnn1C)c1cccnc1Cl: 56.1
- C[C@@H](OC(=O)Nc1c(-c2ccc(C(=O)N[C@@H]3C[C@H]3c3ccccc3)cn2)nnn1C)c1cc(F)cnc1F: 196
- C[C@@H](OC(=O)Nc1c(-c2ccc(C(=O)NC34CC(F)(C3)C4)c(C(F)(F)F)n2)nnn1C)c1cccnc1Cl: 210
- C[C@@H](OC(=O)Nc1c(-c2ccc(C(=O)NC34CC(Cl)(C3)C4)cn2)nnn1C)c1cccnc1F: 58.1
- C[C@@H](OC(=O)Nc1c(-c2ccc(C(=O)Nc3ccnc(Cl)c3F)cn2)nnn1C)c1cc(F)cnc1F: 140
- Cc1nc(-c2nnn(C)c2NC(=O)O[C@H](C)c2cccnc2Cl)ccc1C(=O)NC12CC(Cl)(C1)C2: 48.3

Consider the record given below.
Query: Consider the molecule shown here: COc1cc(NC(=O)c2ccc(-c3nnn(C)c3NC(=O)O[C@H](C)c3cc(F)cnc3F)nc2)ccn1 What is its recorded EC50?
Reply: 55.9
